assayComment: Measurement of Sodium Ion Channel Blocking Effects: In order to measure the sodium ion channel blocking effect, an IonFlux16 Auto patch clamp system (Fluxion, Inc.) and a plate for exclusive use were used. The cells were distributed in an extracellular solution (4 mM KCl, 138 mM NaCl, 1 mM MgCl2, 1.8 mM CaCl2, 5.6 mM glucose, 10 mM HEPES, pH 7.45), and then dispensed in the specified region of the plate, and each of the prepared compound samples was diluted at various concentrations, and then dispensed in the specified region of the plate.
Assay type: cell-based
pIC50: −log10 of the molar value.
measurementName: pIC50

Some solved cases for reference:
[[record]]
compound = "CNC1CCN(c2cc(C#N)ccc2Nc2cc(F)c(S(=O)(=O)Nc3cscn3)cc2Cl)C1 (centres undefined)"
quantitativeresult = 7.49

[[record]]
compound = "NC1CCN(c2cc(F)ccc2Nc2ccc(S(=O)(=O)Nc3cscn3)cc2Cl)C1 (centres undefined)"
quantitativeresult = 6.62

[[record]]
compound = "CNCCN(C)c1cc(C#N)ccc1Nc1cc(F)c(S(=O)(=O)Nc2ncc(F)cn2)cc1Cl"
quantitativeresult = 5.96

[[record]]
compound = "CNC1CCN(c2cc(OC)ccc2Nc2cc(F)c(S(=O)(=O)Nc3cscn3)cc2Cl)C1 (centres undefined)"
quantitativeresult = 7.92

[[record]]
compound = "CNC1CCN(c2cc(F)ccc2Nc2cc(F)c(S(=O)(=O)Nc3cnccn3)cc2Cl)C1 (centres undefined)"
quantitativeresult = 6.52


(a) CNC1CCN(c2cc(F)ccc2Nc2cc(F)c(S(=O)(=O)Nc3ccncn3)cc2Cl)C1 (centres undefined)
(b) CNC1CCN(c2cc(F)ccc2Nc2cc(F)c(S(=O)(=O)Nc3ncc(F)cn3)cc2Cl)C1 (centres undefined)
Exercise: Which of these two has the smaller recorded pIC50: a or b ? Refer to your chosen entry by its label in the reply.
Key: a
